Target: TEAD1 YAP50-100 (Homo sapiens, UniProt P28347)
Sequence (P28347 167-426 limits assumed): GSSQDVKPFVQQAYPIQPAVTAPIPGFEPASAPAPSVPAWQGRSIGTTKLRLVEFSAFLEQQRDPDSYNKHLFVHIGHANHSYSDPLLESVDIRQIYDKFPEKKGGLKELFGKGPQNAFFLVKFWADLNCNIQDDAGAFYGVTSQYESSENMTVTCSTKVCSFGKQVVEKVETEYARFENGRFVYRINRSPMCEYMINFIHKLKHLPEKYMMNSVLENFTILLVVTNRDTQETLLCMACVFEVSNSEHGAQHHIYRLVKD
Assay: TEAD1-YAP HTRF (TR-FRET) protein-protein interaction assay
Type: binding
Settings: TEAD1, YAP peptide 50-100, HTRF
Field: label. Allowed values: Yes (TEAD1 YAP50-100 HTRF combined: Max % Inhibition < 70%) or No (TEAD1 YAP50-100 HTRF combined: Max % Inhibition >= 70%).

Query string: Lab note: TEAD1 YAP50-100 HTRF combined: Max % Inhibition threshold 70%. Does this compound come in strictly under it? C[C@H]1[C@@H](CF)CN1C(=O)c1c(C(=O)N(C)C)nn2c(=O)cc(-c3ccc(C4CCCCC4)cc3)[nH]c12 [Compound 5]
Result string: No

Query string: Next compound: Cc1cncc(-c2nn3c(=O)cc(-c4ccc(C5CCCCC5)cc4)[nH]c3c2C(=O)N2CC(CF)C2)n1 [Compound 28]
Result string: No

Query string: Then what about the compound Cn1cnc(-c2nn3c(=O)cc(-c4ccc(C5CCCCC5)cc4)[nH]c3c2C(=O)N2CC(CF)C2)c1 [Compound 32] ?
Result string: Yes

Query string: What do we get for O=C(c1c(-c2ccccc2)nn2c(=O)cc(-c3ccc(C4CCCCC4)cc3)[nH]c12)N1CC(CF)C1 [Compound 38] ?
Result string: Yes

Query string: Continue with O=C(c1c(-c2cnco2)nn2c(=O)cc(-c3ccc(C4CCCCC4)cc3)[nH]c12)N1CC(CF)C1 [Compound 39]
Result string: Yes
